- system-under-test: human Epidermal Growth Factor Receptor (huEGFR) over-expressed in mcl-1-/- mouse embryonic fibroblasts (human, UniProt P00533 25-1210)
- experiment-description: cell-based or functional assay
Property: huEGFR^+ mcl-1^-/- MEF EC50; scope: individual binders
readout-label: huEGFR^+ mcl-1^-/- MEF EC50 (nM)

[[record]]
binder = "AbA-KZ (antibody, V domains shown, synthon KZ on reduced interchain Cys) VH: EVQLQESGPGLVKPSQTLSLTCTVSGYSISRDFAWNWIRQPPGKGLEWMGYISYNGNTRYQPSLKSRITISRDTSKNQFFLKLNSVTAADTATYYCVTASRGFPYWGQGTLVTVSS VL: DIQMTQSPSSMSVSVGDRVTITCHSSQDINSNIGWLQQKPGKSFKGLIYHGTNLDDGVPSRFSGSGSGTDYTLTISSLQPEDFATYYCVQYAQFPWTFGGGTKLEIKR"
recorded_measurement = 152

[[record]]
binder = "AbG-KZ (antibody, V domains shown, synthon KZ on reduced interchain Cys) VH: EVQLQESGPGLVKPSQTLSLTCTVSGYSISNDFAWNWIRQLPGKGLEWMGYISYKGNTRYQPSLKSRITISRDTSKNQFFLKLNSVTAADTATYYCVTASRGLPYWGQGTLVTVSS VL: DIQMTQSPSSMSVSVGDRVTITCHSSQDITYNIGWLQQKPGKSFKGLIYHGANLDDGVPSRFSGSGSGTDYTLTISSLQPEDFATYYCVQYDEFPWTFGGGTKLEIKR"
recorded_measurement = 96

[[record]]
binder = "AbB-AAD (antibody, V domains shown, synthon AAD on reduced interchain Cys) VH: EVQLQESGPGLVKPSQTLSLTCTVSGYSISNDFAWNWIRQPPGKGLEWMGYISYKGNTRYQPSLKSRITISRDTSKNQFFLKLNSVTAADTATYYCVTASRGFPWWGQGTLVTVSS VL: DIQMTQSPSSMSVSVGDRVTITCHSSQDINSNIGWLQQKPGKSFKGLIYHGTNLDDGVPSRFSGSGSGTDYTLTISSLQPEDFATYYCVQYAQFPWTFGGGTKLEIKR"
recorded_measurement = 4.6

